molecular target: T1, ghrelin receptor (UniProt Q92847 1-366); assay: radioligand binding; competition with 0.1 nM [^125I]-ghrelin on U2OS cells stably expressing GHSR; 50 mM Tris-Cl pH 7.4, 118 mM NaCl, 5 mM MgCl2, 4.7 mM KCl, 0.1% BSA; peptides 10^-12 to 10^-5 M; 60 min at RT; Ki by the Cheng-Prusoff equation; conditions: one partner purified
T1 construct: ghrelin receptor (growth hormone secretagogue receptor); also called GHSR; growth hormone secretagogue receptor; source: U2OS cells stably expressing the receptor, bought: Thermo Fisher Scientific; on cells
T1 sequence (Q92847 whole entry): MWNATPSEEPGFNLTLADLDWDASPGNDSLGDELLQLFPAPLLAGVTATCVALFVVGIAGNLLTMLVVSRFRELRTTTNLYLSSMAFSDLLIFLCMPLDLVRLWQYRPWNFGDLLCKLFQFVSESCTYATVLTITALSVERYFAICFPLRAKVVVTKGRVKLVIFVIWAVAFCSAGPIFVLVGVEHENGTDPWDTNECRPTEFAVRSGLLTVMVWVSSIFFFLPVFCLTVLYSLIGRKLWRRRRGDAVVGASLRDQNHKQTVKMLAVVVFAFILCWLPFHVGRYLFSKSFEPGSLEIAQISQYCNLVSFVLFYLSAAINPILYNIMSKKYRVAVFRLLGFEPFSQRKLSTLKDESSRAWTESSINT
Starred links: 1 amine or outer side, 2 acyl side, 3 side chain; linkers in the order of their positions; H or OH if unused. Groups on a side chain read outwards from the residue. No end group written: not given here. *: point of attachment. γGlu = O=C(O)[C@H](CCC(=O)[*:2])N[*:1]; Palmitoyl = CCCCCCCCCCCCCCCC(=O)*
PROPERTY_LABEL: Ki (nM)

BINDER	OBSERVED
SRTHRHSMEIK([γGlu-Palmitoyl])TPDINPAWYASRGIRPVGRF-NH2 (analog of human PrRP31 with Arg11 replaced by Lys11 that carries palmitic acid through a gamma-Glu linker; numbers count on: the peptide PrRP31; source: synthetic peptide, palmitoylated on resin, purified (HPLC, purity greater than 95%)) [Palm^11-PrRP31]	2800
